- SYSTEM_UNDER_TEST: F508delCFTR (Homo sapiens, UniProt P13569, DEL508-508)
- Construct: expressed in transfected cells; host or cells: CFBE41o- human lung-derived epithelial cells (CFBE41o-F508delCFTR-HRP), doxycycline-inducible
- Sequence (P13569 with tags, fused parts or gaps DEL508-508): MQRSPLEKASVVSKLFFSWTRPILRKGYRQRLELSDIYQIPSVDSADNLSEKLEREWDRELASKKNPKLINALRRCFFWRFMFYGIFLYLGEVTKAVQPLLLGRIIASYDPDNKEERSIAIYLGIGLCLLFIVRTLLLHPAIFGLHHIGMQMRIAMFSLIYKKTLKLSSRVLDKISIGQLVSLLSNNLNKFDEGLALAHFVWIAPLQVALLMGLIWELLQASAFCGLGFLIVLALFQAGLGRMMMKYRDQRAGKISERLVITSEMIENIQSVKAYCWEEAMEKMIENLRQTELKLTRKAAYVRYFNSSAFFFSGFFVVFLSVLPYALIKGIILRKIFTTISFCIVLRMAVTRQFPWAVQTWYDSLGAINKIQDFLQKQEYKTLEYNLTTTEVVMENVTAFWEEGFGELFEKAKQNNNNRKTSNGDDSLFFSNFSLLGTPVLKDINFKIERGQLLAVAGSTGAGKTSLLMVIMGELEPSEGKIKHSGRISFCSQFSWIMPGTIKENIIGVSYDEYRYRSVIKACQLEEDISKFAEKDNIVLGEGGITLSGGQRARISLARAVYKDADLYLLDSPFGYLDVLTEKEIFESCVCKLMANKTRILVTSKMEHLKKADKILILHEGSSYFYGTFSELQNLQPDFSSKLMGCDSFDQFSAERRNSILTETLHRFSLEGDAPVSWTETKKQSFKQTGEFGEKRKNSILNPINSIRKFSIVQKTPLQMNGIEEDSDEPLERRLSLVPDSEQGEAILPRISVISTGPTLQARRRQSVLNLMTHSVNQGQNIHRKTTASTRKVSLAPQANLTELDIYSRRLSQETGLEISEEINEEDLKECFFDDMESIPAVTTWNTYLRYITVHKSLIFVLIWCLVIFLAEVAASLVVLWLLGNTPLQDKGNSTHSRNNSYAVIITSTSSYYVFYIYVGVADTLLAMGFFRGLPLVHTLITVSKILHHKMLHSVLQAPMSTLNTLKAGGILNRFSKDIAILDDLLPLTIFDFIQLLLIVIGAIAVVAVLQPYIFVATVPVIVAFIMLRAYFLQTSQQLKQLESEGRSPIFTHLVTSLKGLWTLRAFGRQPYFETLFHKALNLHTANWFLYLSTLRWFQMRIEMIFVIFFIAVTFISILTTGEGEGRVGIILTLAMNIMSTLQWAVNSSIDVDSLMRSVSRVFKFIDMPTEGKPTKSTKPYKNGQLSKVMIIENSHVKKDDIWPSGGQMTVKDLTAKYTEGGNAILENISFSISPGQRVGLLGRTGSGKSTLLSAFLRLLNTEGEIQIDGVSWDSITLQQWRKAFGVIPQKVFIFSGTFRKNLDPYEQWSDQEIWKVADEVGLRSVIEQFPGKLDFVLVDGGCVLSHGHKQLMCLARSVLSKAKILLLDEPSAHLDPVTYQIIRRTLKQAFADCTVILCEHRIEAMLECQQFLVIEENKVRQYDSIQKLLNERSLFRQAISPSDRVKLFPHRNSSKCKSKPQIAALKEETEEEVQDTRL
- EXPERIMENT_SUMMARY: Cell Surface Expression-Horse Radish Peroxidase (CSE-HRP) assay, test compound with co-corrector
- Format: cell-based
- CONDITION_SUMMARY: with 2 μM co-corrector
ASSAY_METRIC: EC50

Worked set:
{"MOLECULE": "COc1ccc(C(F)(F)F)c2c1[C@H](C(=O)NS(=O)(=O)c1cccc3ncccc13)CC2", "SYSTEM_UNDER_TEST": "F508delCFTR (Homo sapiens, UniProt P13569, DEL508-508)", "EC50": "< 3 µM"}
{"MOLECULE": "COc1ncc(Br)c2c1[C@H](C(=O)NS(=O)(=O)c1cccc3ccccc13)CCC2", "SYSTEM_UNDER_TEST": "F508delCFTR (Homo sapiens, UniProt P13569, DEL508-508)", "EC50": "< 3 µM"}
{"MOLECULE": "COc1ccc(C2CCC2)c2c1[C@H](C(=O)NS(=O)(=O)c1cccc3c1CCCN3)CC2", "SYSTEM_UNDER_TEST": "F508delCFTR (Homo sapiens, UniProt P13569, DEL508-508)", "EC50": "< 3 µM"}
{"MOLECULE": "COc1cccc2c1CCC[C@H]2C(=O)NS(=O)(=O)c1ccccc1C", "SYSTEM_UNDER_TEST": "F508delCFTR (Homo sapiens, UniProt P13569, DEL508-508)", "EC50": "3 to 10 µM"}
{"MOLECULE": "COc1ccc(CC(C)C)c2c1C(C(=O)NS(=O)(=O)c1cccc3ccccc13)CCC2 (centres unmarked)", "SYSTEM_UNDER_TEST": "F508delCFTR (Homo sapiens, UniProt P13569, DEL508-508)", "EC50": "< 3 µM"}

Exercise: Please state recorded EC50 (tested on F508delCFTR (Homo sapiens, UniProt P13569, DEL508-508)) of CCC1(C(=O)NS(=O)(=O)c2ccc(F)c3ccccc23)CCc2c(Cl)cccc21 (centres unmarked)
Key: < 3 µM

---

- SYSTEM_UNDER_TEST: F508delCFTR (Homo sapiens, UniProt P13569, DEL508-508)
- Construct: expressed in transfected cells; host or cells: CFBE41o- human lung-derived epithelial cells (CFBE41o-F508delCFTR-HRP), doxycycline-inducible
- EXPERIMENT_SUMMARY: Cell Surface Expression-Horse Radish Peroxidase (CSE-HRP) assay, test compound with co-corrector
- Format: cell-based
- CONDITION_SUMMARY: with 2 μM co-corrector
pEC50: −log10 of the molar value.
Recorded pEC50 for the following molecules

Solved entries:
{"MOLECULE": "COc1ccc2c(c1)[C@](C)(C(=O)NS(=O)(=O)c1cccc3ccccc13)CC2 [Example I-23]", "pEC50": "> 5.52"}
{"MOLECULE": "CC1(C(=O)NS(=O)(=O)c2cccc3ccccc23)CCc2cccc(Cl)c21 (stereo not shown) [Example I-14]", "pEC50": "> 5.52"}
{"MOLECULE": "C=C(C)c1ccc(OC)c2c1CCC2C(=O)NS(=O)(=O)c1cccc2ccccc12 (stereo not shown) [Example I-124]", "pEC50": "> 5.52"}

Exercise: Sample Cc1ccccc1S(=O)(=O)NC(=O)C1CCc2c(OC(C)C)cccc21 (stereo not shown) [II-40] — what was its pEC50?
Key: 5.00 to 5.52
